assay details: PSAC antagonists in infected red cells, primary screen, cell-based, P. falciparum Indochina, OD700, 18 h (AID 1157)
condition summary: P. falciparum Indochina infected erythrocytes, osmotic lysis OD700, 18 h; higher = more signal, called active from +8 up or from −8 down
# if value of z-score reaches 0.5, tag Criterion met; if it stays below, tag Criterion not met

-- ask Has CN1C(=O)C2C=CC(C(O)C(c3ccccc3)c3ccccc3)N(NC(=O)OC(C)(C)C)C2C1=O (stereo unspecified) a recorded z-score greater than or equal to 0.5?
-- reply Criterion met

-- ask What about this compound? COc1ccc(O[C@H]2C=C[C@@H](c3ccccc3)O[C@@H]2COC(=O)CCC(C)=NOCC[C@@H]2C=C[C@H](OC(C)=O)[C@@H](COC(C)=O)O2)cc1
-- reply Criterion met

-- ask What do you get for CC(=O)C[C@H](O)[C@@H](NC(=O)OC(C)(C)C)C(C)C ?
-- reply Criterion not met

-- ask Also, C[C@H]1CC[C@@H](C(=O)O)N[C@@H]1c1ccc(C#CCN(C)C)cc1 please.
-- reply Criterion not met

-- ask // repeat for COC(=O)CC=C[C@H](C)[C@@H](OCc1ccccc1Br)C(C)C and report
-- reply Criterion met

-- ask Same for O=C1O[C@@H](c2ccccc2)[C@@H](c2ccccc2)N2[C@@H](c3ccc(O)cc3)[C@]3(C(=O)Nc4ccccc43)[C@@H](C(=O)O)[C@H]12
-- reply Criterion not met

-- ask // next record C/C=C\[C@@H](NCc1ccccc1Br)[C@@H](O)Cc1ccccc1
-- reply Criterion not met

-- ask // repeat for CO[C@H]1COC(=O)[C@H](C)COC(=O)CC=C[C@@H](C)[C@H](OC)COC(=O)CC=C[C@@H]1C and report
-- reply Criterion not met

-- ask # iterate: CC(C)[C@@H](OCc1ccccc1)[C@H](C)C=NO[C@H](C)c1cn([C@H](CO)Cc2ccccc2)nn1
-- reply Criterion not met

-- ask Do the same for COc1cccc([C@H]2Oc3ccc(OC)cc3C(=NO[C@H](C)c3cn([C@@H]4COC[C@H]4O)nn3)[C@@H]2O)c1 please
-- reply Criterion not met

-- ask What do you get for O=C(CS)NCCCCCNC(=O)[C@@H]1C[C@@H]2C(=O)N[C@@H](Cc3ccccc3)C(=O)N2[C@@H]1c1ccc(O)cc1 ?
-- reply Criterion not met

-- ask How about O=C1NC(=O)C2C1C=CC(C(O)Cc1ccccc1)N2Nc1ccccn1 (stereo unspecified) ?
-- reply Criterion not met

-- ask Same question for CCOC(=O)[C@H](Cc1ccccc1)NC(=O)CCC1CC(OC(=O)NCc2ccc3c(c2)OCO3)CC2(CCCC(COC(=O)NCc3ccccc3)O2)O1 (stereo partly specified) please.
-- reply Criterion met

-- ask Now give it for C=CC[C@@H]1C=C[C@H](ON=C[C@@H](OC)[C@H](C)C=CCC(=O)OC)[C@@H](CO)O1 too.
-- reply Criterion not met

-- ask Param item: COc1ccc(OC[C@H]2Cc3c(-c4ccccc4)nc4c(c3CO2)CN(CCOc2ccccc2)CC4)cc1
-- reply Criterion not met

-- ask What do you have for O=C1[C@H]2[C@H]3[C@H](O)[C@H](O)CC(=NOC[C@@H](O)COCc4ccco4)[C@H]3CC[C@H]2C(=O)N1C1CCCCC1 ?
-- reply Criterion not met

====

measured on: E3 ubiquitin-protein ligase XIAP (Homo sapiens)
assay details: XIAP binders, primary screen, biophysical, small-molecule microarray, fluorescence 635 nm (AID 1181);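 also: score merges 667 nm emission and signal to noise over triplicate slides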
condition summary: small-molecule microarray binding, higher = more signal
Class assignment keyed on composite z-score, ranges L (below -0.2), M (-0.2 to below 0.1), H (0.1 or more)

-- ask Bin this entry: O=C1O[C@@H](c2ccccc2)[C@@H](c2ccccc2)N2[C@@H](c3ccc(OCCO)cc3)[C@]3(C(=O)Nc4ccccc43)[C@@H](C(=O)N3CCN(c4ncccn4)CC3)[C@H]12
-- reply L

-- ask And the next one, CC(C)(C)OC(=O)CC[C@]1(C(=O)NCc2ccccc2)N=C(c2ccc(OCCCO)cc2)O[C@H]1c1ccccc1 ?
-- reply M

-- ask Also CCOc1ccc(N2C(=O)/C(=C/C=C/c3ccccc3OC)S(=O)(=O)C2c2cccc([N+](=O)[O-])c2)cc1 (stereo not given) ?
-- reply M

-- ask Repeat for the following molecule: C#C[C@@H]1Oc2ccccc2S(=O)(=O)N2CCC[C@H]12
-- reply L

-- ask And for COC(=O)[C@@]1(Cc2ccc(F)cc2)[C@H]2c3cc(C(=O)N(C)C)n(Cc4ccc(OC)c(OC)c4)c3C[C@H]2CN1C(=O)c1ccccc1 ?
-- reply H

-- ask Now try COc1ccc(O[C@H]2C=C[C@@H](c3ccccc3)O[C@@H]2CON=C[C@@H](C)[C@H](OCc2ccccc2)C(C)C)cc1 .
-- reply H

-- ask Repeat with CCCCCN1CC=CC23O[C@@H]4C=CCOC(=O)[C@@H]4[C@H]2C(=O)N(C(CO)C(C)C)[C@@H]3C1=O (stereo not given in full)
-- reply H

-- ask Now give it for CCOC(=O)NN=C1C[C@@H](O)[C@@H](O)[C@@H]2[C@@H]3C(=O)N(C(C)(C)C)C(=O)[C@@H]3CC[C@@H]12 too.
-- reply H

-- ask Also COC(=O)CC1OC1[C@H](C)[C@@H](OC)C(C)C (stereo not given in full) , if possible.
-- reply L

-- ask Input COc1ccc([Si](C)(C)[C@@H]2[C@@H](CCO)O[C@]3(C(=O)N(Cc4ccc(NC(C)=O)cc4)c4ccccc43)[C@H]2C)cc1
-- reply M

-- ask Please give the result for O=C1[C@H]2[C@H]3[C@H](O)[C@H](O)CC(=NO[C@@H]4O[C@H](CO)[C@@H](O)[C@H](O)[C@H]4O)[C@@H]3CC[C@H]2C(=O)N1Cc1ccccc1 too.
-- reply M

-- ask And for C[C@@H]1C=CCC(=O)OC[C@H](C)C(=O)OC[C@H]2O[C@H]1C=C[C@H]2O ?
-- reply L

-- ask Then COCCCNC(=O)[C@@]1(CCS(=O)(=O)c2ccccc2)N=C(c2ccc(OCCCO)cc2)O[C@H]1c1ccccc1 ?
-- reply H

-- ask Quick one: CCOC(=O)[C@H](CC(C)C)NC(=O)CCC1CC(OC(=O)NCc2cccc3ccccc23)CC2(CCCC(COC(=O)NCCc3ccccc3OC)O2)O1 (stereo not given in full)
-- reply M

-- ask Another: CC1CC/C=C\[C@H]2OC34C=CCN(Cn5nnc6ccccc65)C(=O)[C@H]3N(CCO)C(=O)[C@@H]4C2C(=O)O1 (stereo not given in full)
-- reply H

====

assay details: basal MM1S mitochondrial membrane potential changes, profiling panel, cell-based, JC-1 fluorescence, 24 h, 100 nL compound (AID 1170); also: test concentration not given here
condition summary: higher = more signal
assay readout: z-score
Lab note: record just the number, no unit beside it.

-- ask Which value of z-score has been reported for C=C(CCCC)C(=O)CC[C@@H](OC(C)=O)c1cccc(OCCO)c1 in the records?
-- reply -0.238

-- ask Could you do the same for Cc1cc(C)c(-c2cc([C@H](C)ON=C3[C@H]4CCn5c(=O)n(-c6ccccc6)c(=O)n5[C@H]4[C@H](O)[C@@H]4O[C@H]34)on2)c(C)c1 , please?
-- reply -2.39

-- ask Subsequent entry: CC1CC/C=C\[C@H]2OC34C=CCN(Cn5nnc6ccccc65)C(=O)[C@H]3N(CCO)C(=O)[C@@H]4C2C(=O)O1 (some centres undefined)
-- reply 0.206

-- ask Try this molecule next: COCCOC(=O)N1C(=O)[C@@]2(c3cc(C#CCNC(N)=O)ccc31)[C@H](c1ccccc1OCCO)N1[C@H](c3ccccc3)[C@H](c3ccccc3)OC(=O)[C@H]1[C@@H]2C(=O)N1CCN(c2ncccn2)CC1
-- reply -0.859

-- ask And then O=C1[C@H]2[C@H]3[C@H](O)[C@H](O)CC(=NO[C@@H]4O[C@H](CO)[C@@H](O)[C@H](O)[C@H]4O)[C@H]3CC[C@H]2C(=O)N1Cc1ccc2c(c1)OCO2 , what is it?
-- reply -1.13

-- ask Similarly, C[N+](C)(C)CCCCCCNC(=O)[C@@H]1C[C@@H]2C(=O)N3CCC[C@H]3C(=O)N2[C@@H]1c1cccc(OCCO)c1 ?
-- reply -1.03

-- ask Now consider COCCCNC(=O)[C@]1(Cc2ccccc2)N=C(c2ccc(OCCCO)cc2)O[C@@H]1c1ccccc1 and answer again.
-- reply -0.498

-- ask Another: CC(C)(C)N1C(=O)[C@H]2[C@H]3[C@H](O)[C@H](O)CC(=NOCc4ccccc4)[C@@H]3CC[C@H]2C1=O
-- reply -1.01

-- ask Record: COC(=O)CC=C[C@@H](C)[C@@H](C=NO[C@@H](C)c1cc(-c2c(C)cc(C)cc2C)no1)OC
-- reply -1.19

-- ask What do you get for CC(=O)C[C@H](O)[C@@H](NC(=O)OC(C)(C)C)C(C)C ?
-- reply -0.347

-- ask Would you mind doing CC(CCC(=O)OC[C@H]1O[C@H](C#Cc2ccccc2)C=C[C@@H]1Oc1ccc(C)cc1)=NOC[C@@H](O)[C@H]1O[C@@H]2OC(C)(C)O[C@@H]2[C@H]1O as well?
-- reply -1.26

-- ask Please give the result for CC(C)=NOCc1cccc(-c2cc(-c3ccccc3)no2)c1 too.
-- reply 0.354

-- ask Also CO[C@@H]1COC(=O)CCC[C@@H](C)[C@H](OC)COC(=O)CCC[C@H]1C ?
-- reply -0.162

-- ask Check CCOC(=O)[C@H](Cc1ccccc1)NC(=O)CCC1CC(OC(=O)NCc2ccc3c(c2)OCO3)CC2(CCCC(COC(=O)NCC(c3ccccc3)c3ccccc3)O2)O1 (some centres undefined) too.
-- reply -1.95

-- ask Would you kindly repeat that for COc1cccc([C@@H]2Oc3ccc(Br)cc3C(=O)[C@H]2O)c1 ?
-- reply -1.31

-- ask Please do the same for CC(=O)OC[C@H]1O[C@H](CCON=C(C)CCC(=O)OC[C@H]2O[C@H](C#Cc3ccccc3)C=C[C@@H]2Oc2ccc(C)cc2)C=C[C@@H]1OC(C)=O as well.
-- reply -0.738

-- ask # repeat for C=CCC(OC(C)=O)[C@@H]1[C@@H](N(Cc2cc3ccccc3o2)C(=O)Cc2ccc(F)cc2)c2cc(OCCCO)ccc2N1C(=O)Cc1ccc(OC)cc1 (some centres undefined)
-- reply -0.208

-- ask CO[C@@H]1COC(=O)[C@H](C)NC(=O)[C@@H](C)COC(=O)CCC[C@H]1C ?
-- reply -0.626

-- ask Item: COc1cccc([C@H]2Oc3ccc(OC)cc3C(=NOC(C)CN3CCCc4nc(C)c(C)cc43)[C@@H]2O)c1 (some centres undefined)
-- reply -0.947

-- ask Another molecule to look at: CC(=O)OC[C@H]1O[C@H](CC=NOC[C@@H](C)[C@H](OCc2ccccc2)C(C)C)C=C[C@@H]1OC(C)=O
-- reply -0.482

-- ask Check CCOc1ccc(N2C(=O)/C(=C/C=C/c3ccccc3OC)S(=O)(=O)C2c2cccc([N+](=O)[O-])c2)cc1 (centres undefined) too.
-- reply -0.0787

-- ask Same thing, different molecule: CCN1C(=O)[C@H]2[C@H]3[C@H](O)[C@H](O)CC(=NOCc4ccccc4)[C@H]3CC[C@H]2C1=O
-- reply 0.515

-- ask Same question for CCOC(=O)[C@H](Cc1ccccc1)NC(=O)CCC1CC(OC(=O)NCc2ccc3c(c2)OCO3)CC2(CCCC(COC(=O)NCC3CCCCC3)O2)O1 (some centres undefined) please.
-- reply -0.306

-- ask Check C[C@@H](c1ccccc1)N1C(=O)[C@H]2[C@H]3[C@H](O)C=CC(=O)[C@@H]3CC[C@H]2C1=O too.
-- reply 0.711

-- ask // query: COc1ccc(O[C@H]2C=C[C@@H](c3ccccc3)O[C@@H]2COC(=O)CCC(C)=NOCC[C@@H]2C=C[C@H](OC(C)=O)[C@@H](COC(C)=O)O2)cc1
-- reply -0.522

-- ask Same thing, different molecule: CCCC[C@@H](O)C1=C(C)C[C@H]2C(=O)N(Cc3ccccc3)C(=O)[C@H]2[C@H]1CO
-- reply -0.785

-- ask Can you check COc1ccc([Si](C)(C)[C@@H]2[C@@H](CC(=O)N3CCC[C@H]3CO)O[C@]3(C(=O)N(Cc4cccc(N5CCC5=O)c4)c4ccccc43)[C@H]2C)cc1 next?
-- reply -2.19

-- ask Proceed to CCN(CC)c1ccc(N2CC=CC34O[C@@H]5/C=C\CCC(C)OC(=O)C5[C@H]3C(=O)N(CCCO)[C@@H]4C2=O)cc1 (some centres undefined)
-- reply 1.18

-- ask Next molecule: CC(C)CON=C1C[C@@H](O)[C@@H](O)[C@@H]2[C@@H]3C(=O)N([C@@H](C)c4ccccc4)C(=O)[C@@H]3CC[C@H]12
-- reply -1.32
